Assign IC50 to each entry below.
# systemTested: Human TRPC6 (Homo sapiens)
# Construct: expressed in transfected cells
# measurementDescription: Evaluation of TRPC6 channel inhibitory activity (1), FLIPR Calcium 5 Assay Kit, OAG stimulation (Compound Nos. 1-1293)
# Type: cell-based
# measurementParameters: Human TRPC6 stably-expressing cells, OAG 30 μM, FLIPR Calcium 5 Assay Kit; read-out: Inhibitory activity (pIC50 class) (converted)

{"smilesInput": "N#Cc1ccc(-c2ccc(CN)cn2)c(Oc2cnnc(N3CCCCC3)c2)c1", "IC50": "< 10 nM"}
{"smilesInput": "N#Cc1ccc(-c2ncc(CN)cn2)c(C(=O)c2cnn(C3CCOCC3)c2)c1", "IC50": "10 to 1000 nM"}
{"smilesInput": "CC(C)c1cc(Oc2cc(F)ccc2-c2ncc(CN)cn2)n(C)n1", "IC50": "< 10 nM"}

Moving on to another molecule below.
Quickly give me recorded IC50 for Cc1cc(Oc2cc(C#N)ccc2-c2ncc([C@@H](F)CN)cn2)cc(N2CCOCC2)n1
< 10 nM

----------
# systemTested: Human TRPC6 (Homo sapiens)
# Construct: expressed in transfected cells
# measurementDescription: Evaluation of TRPC6 channel inhibitory activity (1), FLIPR Calcium 5 Assay Kit, OAG stimulation (Compound Nos. 1-1293)
# Type: cell-based
# measurementParameters: Human TRPC6 stably-expressing cells, OAG 30 μM, FLIPR Calcium 5 Assay Kit; read-out: Inhibitory activity (pIC50 class) (converted)
quantityKind: IC50

Record excerpt, results attached:
{"compound": "Cn1nc(N2CCOCC2)cc1Oc1cc(F)ccc1-c1ncc(CCN)cn1", "quantityKind": "IC50", "readoutValue": "10 to 1000 nM"}
{"compound": "Cc1cc(Oc2cc(C#N)ccc2-c2ncc(CCN)cn2)cc(C)n1", "quantityKind": "IC50", "readoutValue": "10 to 1000 nM"}
{"compound": "Cc1nc(Nc2cc(C#N)ccc2-c2ccc3c(c2)COC32CNC2)cc(N2CCOCC2)n1", "quantityKind": "IC50", "readoutValue": "10 to 1000 nM"}
{"compound": "Cc1nc(Oc2cc(C#N)ccc2-c2ncc(CCN)cn2)cc(N2CCC[C@H]2C#N)n1", "quantityKind": "IC50", "readoutValue": "10 to 1000 nM"}

For each of the compounds below, note its IC50.
1. Cc1cc(Oc2cc(C#N)ccc2-c2cnc(CN)s2)cc(N2CCOCC2)n1
2. Cc1nc(Oc2cc(C#N)ccc2-c2csc(C(O)CN)n2)cc(-c2ccccc2)n1 (centres unmarked)
3. CC(N)c1ccc(-c2ccc(C#N)cc2Oc2cc(-c3ccccn3)nn2C)nc1 (centres unmarked)
4. Cn1nc(C2CC2)cc1Oc1cc(C#N)ccc1-c1nccc(CN)n1

1. > 1000 nM
2. 10 to 1000 nM
3. < 10 nM
4. > 1000 nM

----------
# systemTested: Human TRPC6 (Homo sapiens)
# Construct: expressed in transfected cells
# measurementDescription: Evaluation of TRPC6 channel inhibitory activity (1), FLIPR Calcium 5 Assay Kit, OAG stimulation (Compound Nos. 1-1293)
# Type: cell-based
# measurementParameters: Human TRPC6 stably-expressing cells, OAG 30 μM, FLIPR Calcium 5 Assay Kit; read-out: Inhibitory activity (pIC50 class) (converted)
Assign IC50 to each entry below.

Record excerpt, results attached:
{"compound": "Cc1cc(Oc2cc(F)ccc2-c2ncc(CCN)cn2)cc(N2CCOCC2)n1", "readoutValue": "< 10 nM"}
{"compound": "Cc1cc(Cc2cc(C#N)ccc2-c2ncc(CCN)cn2)cc(N2CCOCC2)n1", "readoutValue": "10 to 1000 nM"}
{"compound": "Cc1cc(Oc2cc(C#N)ccc2-c2ncc(CN)cn2)cc(NC2CC2)n1", "readoutValue": "10 to 1000 nM"}
{"compound": "CN(C)c1cc(Oc2cc(C#N)ccc2-c2ncc([C@H](F)CN)cn2)n(C)n1", "readoutValue": "< 10 nM"}
{"compound": "Cc1nc(Oc2cc(C#N)ccc2-c2ccc(C(O)CN)c(Cl)c2)cc(N2CCOCC2)n1 (centres unmarked)", "readoutValue": "< 10 nM"}

For each of the compounds below, note its IC50.
1. Cn1nc(C2CC2)cc1Oc1cc(C#N)ccc1-c1cccc(N)n1
2. CCN(CC)c1cc(Cc2cc(C#N)ccc2-c2ncc(CN)cn2)n(C)n1
3. N#Cc1ccc(-n2cc(C(O)CN)cn2)c(Cn2cnc(-c3ccccc3)c2)c1 (centres unmarked)

1: > 1000 nM; 2: < 10 nM; 3: > 1000 nM

----------
# systemTested: Human TRPC6 (Homo sapiens)
# Construct: expressed in transfected cells
# measurementDescription: Evaluation of TRPC6 channel inhibitory activity (1), FLIPR Calcium 5 Assay Kit, OAG stimulation (Compound Nos. 1-1293)
# Format: cell-based
# measurementParameters: Human TRPC6 stably-expressing cells, OAG 30 μM, FLIPR Calcium 5 Assay Kit; read-out: Inhibitory activity (pIC50 class) (converted)
Assign IC50 to each entry below.

Record excerpt, results attached:
{"compound": "Cn1nc(C(F)F)cc1Oc1cc(C#N)ccc1-c1ccc(CN)cn1", "IC50": "< 10 nM"}
{"compound": "CCN(CC(F)F)c1cc(C(=O)c2cc(C#N)ccc2-c2ncc(CN)cn2)n(C)n1", "IC50": "< 10 nM"}
{"compound": "Cc1nc(N2CCOCC2)sc1C(=O)c1cc(C#N)ccc1-c1ccc(CCN)cc1", "IC50": "< 10 nM"}
{"compound": "Cc1cc(Oc2cc(C#N)ccc2-c2ccc([C@H](O)CN)cn2)cc(C2CCOCC2)n1", "IC50": "10 to 1000 nM"}
{"compound": "Cc1nc(Oc2cc(C#N)ccc2-c2ncc(CN)cn2)cc(N2CCC[C@H]2C)n1", "IC50": "10 to 1000 nM"}

For each of the compounds below, note its IC50.
1. Cc1nc(Oc2cc(C#N)ccc2-c2ncc([C@H](O)CN)cn2)cc(N2CCCCC2)n1
2. Cc1nc(OCC(F)(F)F)cc(Oc2cc(C#N)ccc2-c2ncc(CCN)cn2)n1
3. CCOC(=O)c1cc(Oc2cc(C#N)ccc2-c2ccc(CCN)cn2)n(C)n1
4. Cc1nc(Oc2cc(C#N)ccc2-n2cc([C@H](O)CN)cn2)cc(-c2ccccc2)n1
5. Cc1nc(Oc2cc(C#N)ccc2-n2cc([C@@H](O)CN)cn2)cc(-c2ccccc2)n1
6. Cc1nc(Oc2cc(C#N)ccc2-c2ncc(CN)cn2)cc(OC2CCC2)n1
7. Cc1nc(Sc2cc(C#N)ccc2-c2ccc(CCN)cn2)cc(N2CCOCC2)n1

["< 10 nM", "10 to 1000 nM", "10 to 1000 nM", "< 10 nM", "< 10 nM", "> 1000 nM", "10 to 1000 nM"]

----------
# systemTested: Human TRPC6 (Homo sapiens, UniProt Q9Y210)
# Construct: expressed in transfected cells
# Sequence (Q9Y210 whole entry): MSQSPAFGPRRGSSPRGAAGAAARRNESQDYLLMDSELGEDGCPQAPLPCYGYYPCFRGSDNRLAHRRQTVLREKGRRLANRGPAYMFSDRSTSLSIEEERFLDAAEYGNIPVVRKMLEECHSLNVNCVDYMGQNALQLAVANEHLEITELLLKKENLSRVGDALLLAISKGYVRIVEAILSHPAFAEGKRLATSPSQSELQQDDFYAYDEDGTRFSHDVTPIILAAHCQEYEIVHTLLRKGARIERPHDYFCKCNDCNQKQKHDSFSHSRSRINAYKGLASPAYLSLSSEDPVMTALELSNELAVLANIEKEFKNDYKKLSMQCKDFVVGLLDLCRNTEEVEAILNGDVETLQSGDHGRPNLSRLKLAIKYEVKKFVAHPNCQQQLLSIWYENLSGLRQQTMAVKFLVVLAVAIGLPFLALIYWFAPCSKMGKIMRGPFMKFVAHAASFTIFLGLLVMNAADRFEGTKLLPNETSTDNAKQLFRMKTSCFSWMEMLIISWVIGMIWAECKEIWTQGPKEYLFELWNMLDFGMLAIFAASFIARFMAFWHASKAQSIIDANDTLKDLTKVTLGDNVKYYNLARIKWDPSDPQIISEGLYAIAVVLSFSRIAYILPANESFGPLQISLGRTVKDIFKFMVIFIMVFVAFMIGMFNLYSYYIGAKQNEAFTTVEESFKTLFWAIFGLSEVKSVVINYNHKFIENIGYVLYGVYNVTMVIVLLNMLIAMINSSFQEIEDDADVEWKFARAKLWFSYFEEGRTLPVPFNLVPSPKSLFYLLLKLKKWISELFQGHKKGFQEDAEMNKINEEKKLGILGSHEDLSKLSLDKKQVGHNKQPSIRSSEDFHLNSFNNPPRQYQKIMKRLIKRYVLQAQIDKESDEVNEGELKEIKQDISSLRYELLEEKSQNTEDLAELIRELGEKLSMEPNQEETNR
# measurementDescription: Evaluation of TRPC6 channel inhibitory activity (2), HEK293 cells with stably introduced human TRPC6, OAG stimulation, FLIPR tetra (Compound Nos. 1293 to 1405)
# Type: cell-based
# measurementParameters: HEK293 cells with stably introduced human TRPC6, OAG 50 μM/0.5% DMSO, read-out: Inhibitory activity (pIC50 class) (converted)
Assign IC50 to each entry below.

{"smilesInput": "COc1nc(-c2ccc(C#N)cc2Oc2cc(C)nc(N3CCOCC3)c2)ccc1CN", "IC50": "10 to 1000 nM"}
{"smilesInput": "Cn1nc(-c2ccccn2)cc1Oc1cc(Cl)ccc1-c1ncc([C@@H](O)CN)cn1", "IC50": "< 10 nM"}
{"smilesInput": "Cn1nc(C2CCOCC2)cc1Oc1cc(Cl)cnc1-c1ccc(C(F)(F)CN)cn1", "IC50": "> 1000 nM"}
{"smilesInput": "Cc1cc(Oc2cc(Cl)ccc2-c2ccc([C@@H](F)CN)cn2)cc(N2CCOCC2)n1", "IC50": "10 to 1000 nM"}
{"smilesInput": "Cn1nc(C2CCOCC2)cc1Oc1cc(Cl)ccc1-c1ncc(CCN)cn1", "IC50": "10 to 1000 nM"}
{"smilesInput": "Cc1nc(Oc2cc(Cl)ccc2-c2ncc([C@H](F)CN)cn2)cc(N2CCOCC2)n1", "IC50": "10 to 1000 nM"}
{"smilesInput": "Cc1cc(Oc2cc(Cl)ccc2-c2ncc([C@@H](O)CN)cn2)cc(N2CCOCC2)n1", "IC50": "< 10 nM"}
{"smilesInput": "Cn1nc([C@@H]2CCOC2)cc1Oc1cc(C#N)ccc1-c1ncc(CN)cn1", "IC50": "10 to 1000 nM"}
{"smilesInput": "CNc1ccc(-c2ccc(C#N)cc2Oc2cc(C)nc(N3CCOCC3)c2)nc1", "IC50": "> 1000 nM"}
{"smilesInput": "Cn1nc(-c2ccccn2)cc1Oc1cc(Cl)ccc1-c1ccc(CN)cn1", "IC50": "< 10 nM"}

For each of the molecules below, note its IC50.
1. Cc1cc(Oc2cc(Cl)cnc2-c2ccc([C@H](F)CN)cn2)cc(N2CCOCC2)n1
2. Cn1nc(-c2ccccn2)cc1Oc1cc(F)ccc1-c1ncc(CN)cn1
3. Cc1cc(Oc2cc(C#N)ccc2-c2ccc([C@H](F)CN)cn2)cc(N2CCOCC2)n1
4. Cn1nc(C2CCOCC2)cc1Oc1cc(C#N)ccc1-c1ccc(C(F)(F)CN)cn1
5. Cn1nc(-c2ccccc2)nc1Oc1cc(Cl)ccc1-c1ncc(CCN)cn1
6. Cn1nc(C2CC2)cc1Oc1cc(F)ccc1-c1ncc([C@H](O)CN)cn1
7. Cn1nc(C2CCOCC2)cc1Oc1cc(Cl)ccc1-c1ncc([C@@H](O)CN)cn1
8. Cn1nc(-c2ccccn2)cc1Oc1cc(Cl)ccc1-c1ncc([C@@H](F)CN)cn1

1. < 10 nM
2. 10 to 1000 nM
3. < 10 nM
4. 10 to 1000 nM
5. > 1000 nM
6. 10 to 1000 nM
7. 10 to 1000 nM
8. < 10 nM
